Listed here are compounds together with their documented melting point.
QUANTITY_MEASURED: melting point

[
  {
    "COMPOUND": "COC1(c2nc3c(F)cccc3s2)C=CC(=NS(=O)(=O)c2ccc(C)cc2)C=C1 (stereo not drawn)",
    "QUANTITY_MEASURED": "melting point",
    "OBS_VALUE": "176 °C"
  },
  {
    "COMPOUND": "Cc1nc(-c2c(F)cccc2Cl)nn1-c1ccc(COc2ncc(C(F)(F)F)cc2Cl)cc1",
    "QUANTITY_MEASURED": "melting point",
    "OBS_VALUE": "96 to 97 °C"
  },
  {
    "COMPOUND": "CC(C)(CO)NS(=O)(=O)c1cccc(-c2cc(-c3nc(-c4ccc(C(F)(F)F)cc4)cc(C(F)(F)F)n3)ccn2)c1",
    "QUANTITY_MEASURED": "melting point",
    "OBS_VALUE": "221 °C"
  },
  {
    "COMPOUND": "COc1ccc(C(=O)Nc2ccccc2)c(C(=O)Cc2ccccn2)c1",
    "QUANTITY_MEASURED": "melting point",
    "OBS_VALUE": "145 to 148 °C"
  },
  {
    "COMPOUND": "O=C(OCc1ccccc1)c1cc(C(=O)OCc2ccccc2)[nH]n1",
    "QUANTITY_MEASURED": "melting point",
    "OBS_VALUE": "120 °C"
  },
  {
    "COMPOUND": "O=C(O)C(S)c1cc(Cl)ccc1Cl (stereo not drawn)",
    "QUANTITY_MEASURED": "melting point",
    "OBS_VALUE": "129 to 130 °C"
  },
  {
    "COMPOUND": "CSCON=C(C(=O)O)c1nccc(NC=O)n1",
    "QUANTITY_MEASURED": "melting point",
    "OBS_VALUE": "80 to 85 °C"
  },
  {
    "COMPOUND": "Cc1ccc(C(=O)/C=C/c2cc(C(C)(C)C)c3oc(=O)c(C(=O)O)cc3c2)cc1",
    "QUANTITY_MEASURED": "melting point",
    "OBS_VALUE": "185 to 186 °C"
  }
]

----------
Listed here are molecules together with their documented melting point.
QUANTITY_MEASURED: melting point

[
  {
    "SMILES_RECORD": "Cc1nc(N2CCN(Cc3ccccc3)CC2)ncc1C(N)=O",
    "QUANTITY_MEASURED": "melting point",
    "OBS_VALUE": "195 to 196 °C"
  },
  {
    "SMILES_RECORD": "CC(C)C(=O)N[C@@H]1CCc2c(c3cc(C#N)ccc3n2Cc2cccc(F)c2)C1",
    "QUANTITY_MEASURED": "melting point",
    "OBS_VALUE": "223 to 225 °C"
  },
  {
    "SMILES_RECORD": "CCn1c(-c2ccc(N)cc2)n[nH]c1=S",
    "QUANTITY_MEASURED": "melting point",
    "OBS_VALUE": "240 to 250 °C"
  }
]

----------
Listed here are compounds together with their documented melting point.

[
  {
    "SMILES_RECORD": "Cc1cc(-c2cc(C(C)(C)C)[nH]n2)c(F)cc1Cl",
    "UNIT_ANNOTATION": "°C",
    "melting point": 138
  },
  {
    "SMILES_RECORD": "CC(C)(OCc1cc2cc(C(F)(F)F)ccc2n1S(=O)(=O)c1ccc2c(c1)OCCO2)C(=O)O",
    "UNIT_ANNOTATION": "°C",
    "melting point": 75
  }
]
